TARGET: T1, glutathione S-transferase (UniProt P08515 1-218 = GST)
T1 construct: Expressed in E. coli, purified on GSH resin; also called GST
T1 sequence (P08515 whole entry): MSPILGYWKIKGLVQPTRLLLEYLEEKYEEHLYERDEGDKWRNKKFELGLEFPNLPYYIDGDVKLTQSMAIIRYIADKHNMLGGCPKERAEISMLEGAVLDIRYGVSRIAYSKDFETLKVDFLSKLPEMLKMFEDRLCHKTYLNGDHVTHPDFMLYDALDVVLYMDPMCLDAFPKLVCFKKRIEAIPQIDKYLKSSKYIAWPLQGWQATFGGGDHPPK
ASSAY COMMENT: SPR, GST immobilised;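 further: nanobody analytes injected as dilution series over three orders of magnitude across antigen on a CM5 chip, kinetics fitted by 1:1 Langmuir model, optionally with mass transfer, duplicate runs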
RESULT TYPE: koff (s⁻¹)
One number for each entry, in s⁻¹.

// known answers, use as guide
INSERT INTO measurements (binder, display_unit, observed_measurement) VALUES
  ('G2 (VHH) VHH: EVQLVESGGDLVQAGGSLRLSCSASGNIFKINDMGWYRQAPGKQRELVARISSSGNTNYADSVKGRFTISRDNGKNTVYLQMNRVKPEDTAVYYCNADVQVSRNYEYEYWGQGTQVTVSS', 's⁻¹', 0.00204),
  ('G7 (VHH) VHH: QVQLVESGGGLVQPGDSLRLSCAVSGQYVNMAAMGWFRQAPGKEREFVAGISWSDDTDIADSVKGRFTISRDHGKNTVDLQMNSLKPEDTGVYLCAGRFRRLAKDFGEYDYWGQGTQVTVSS', 's⁻¹', 0.000809),
  ('G34 (VHH) VHH: QVQLVESGGGLVQAGDSLRLSCAASGRTFSRYAMAWFRQAPGKEREFVAGISWTGRFTYYADSVKGRFTISRDDAKNTVYLQMNNLKPEDTGLYFCKVGDPYGVGLREYEWWGPGTQVTVSS', 's⁻¹', 0.000462),
  ('G95 (VHH, also called G95(C2)) VHH: HVQLVESGGGLVQAGGSLRLSCAASGRTFSSYAMAWFRQAVGKEREFVAAVSRSGTNLYYADSVKGRFTISRDTAKNTMYLQMNSLKPEDTALYYCAAGEALRWGIGQQPRSEFFDYWGQGTQVTVSS', 's⁻¹', 0.00107),
  ('G17 (VHH) VHH: EVQLVESGGGLVQAGGSLRLSCAASGVTISYWVMGWFRQAPGKEREFVARISWGGERTYYADSVKGRFAISRDNAKNTVYLQMNSLNAEDTAVYYCAADRTGWGHSNSRSEYDYWGQGTQVTVSS', 's⁻¹', '2.92e-05'),
  ('G9 (VHH) VHH: DVQLVESGGGLVQPGGSLRLSCAASGLTLDNYDMAWFRQAPGKEREFVTAINYVGGRTYADSVRGRFTISRDDTKNTVYLQMNSLKPEDTAVYYCAAGLQYGITSLRTRNYNYWGQGTQVTVSS', 's⁻¹', 0.000353);

Batch request: koff per item, same order as input.
1. G82 (VHH) VHH: HVQLVESGGGLVQAGGSLRLSCAASGKIFSLSTMGWYRQAPGKQRELVAALTSGGSTNYADSVKGRFTISRDNAKYTTYLQMNSLKPEDTAVYYCNVRYYSGYDGYESNSWGQGTQVTVSS
2. G48 (VHH) VHH: QVQLVESGGGLVQAGGSLRLSCAASGRTFSTLSMGWFRQAPGQGREFVGGINYDGSSVEYADSVKGRFTISRDNAKNMMYLQMNSLKPEDTAAYYCASSRGYNTGTNPLGYDVWGQGTQVTVSS

Resp:
[0.000561, 0.000753]

Return reported koff values for all items listed beneath this line.
1. G22 (VHH) VHH: QVQLVESGGGSVQAGGSLRLSCAASGRTFSSYSMAWFRQAPGKEREFVAVMNCRYGDTDYPDSVKGRFTMSRDNAKNTLYLQMNSLKPEDTAVYYCAAKLIAYCGSGYYYRRNDYGYWGQGTQVTVSS
2. G60 (VHH, also called G60(C1)) VHH: QMGRNSAEVQLVESGGSLRLSCAASGSGFSSSIIAWYRQAPGKQRELVAAIGGPGSTNYADFVEGRFTISRDNAKNTGYLQMNNLNPEDTAVYYCNEVTRSGREYWGQGTQVTVSS
3. G83 (VHH) VHH: QVQLVESGGGLVQAGGSLRLSCAASRRTFSIYNMGWFRQAPGKEREFVATITRYGDRTYTADSVKGRFTISSDQAKNTVYLQMNSLNPHDTAVYYCAADSAYSGPDFKHYDYWGQGTQVTVSS
4. G47 (VHH) VHH: QVQLVESGGGLVQAGGSLRLSCAASERIFSNYAMGWFRQAPGKEREFVASIRGSGSQTSYADSVKGRFTISRDGAKDTVDLQMNSLKPEDTAVYYCSAKKYCGSTYNRAEGYDYWGQGTQVTVSS

Resp:
1: 0.00125; 2: 0.00586; 3: 0.000751; 4: 0.0127

Req: Look up koff for this binder: G13 (VHH, also called G13(C3)) VHH: DVQLVESGGGVVQAGGSLRLSCAASGRTFSDYAMGWFRQAPGKEREFVAGVSWSGVDTYYADSVKGRFTISRDNAKNTLYVQMNSLKPEDTAVYYCAAQRYYHGHAKNMRYDYWGQGTQVTVSS
Resp: 0.00017
